# Lookup of reported STK11 functional score keyed by entry
B1: library; numbered along this chain (parent)
chain: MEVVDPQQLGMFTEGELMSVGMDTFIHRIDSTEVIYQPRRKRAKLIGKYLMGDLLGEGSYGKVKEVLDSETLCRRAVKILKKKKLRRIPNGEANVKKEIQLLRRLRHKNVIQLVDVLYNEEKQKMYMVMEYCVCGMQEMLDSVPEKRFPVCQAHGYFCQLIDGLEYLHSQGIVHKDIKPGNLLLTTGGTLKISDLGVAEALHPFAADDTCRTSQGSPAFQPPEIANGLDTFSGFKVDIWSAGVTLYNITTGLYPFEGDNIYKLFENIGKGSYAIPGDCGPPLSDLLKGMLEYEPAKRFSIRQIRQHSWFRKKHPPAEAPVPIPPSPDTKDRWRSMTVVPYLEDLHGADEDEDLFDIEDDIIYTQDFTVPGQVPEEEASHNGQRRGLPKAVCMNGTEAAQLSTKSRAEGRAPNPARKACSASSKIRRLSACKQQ

variants of: B1; experiment: STK11 functional score (HeLa growth suppression), rescaled enrichment; synonymous median = 1, nonsense median = 0 (normalised score); details: with HeLa; variant type: missense
Please reply with the value in numeric form only.

Here's what some known entries look like.
mutation_descriptor=I29C outcome_measure="STK11 functional score" numeric_value=1.41
mutation_descriptor=S240H outcome_measure="STK11 functional score" numeric_value=1.08
mutation_descriptor=T209N outcome_measure="STK11 functional score" numeric_value=1.51
mutation_descriptor=P6A outcome_measure="STK11 functional score" numeric_value=0.942
mutation_descriptor=L55D outcome_measure="STK11 functional score" numeric_value=1.31

Enquiry: Record request: STK11 functional score value, item `E265S`
Return: 1.49
